Overview of reported IC50 across a group of molecules:
Biological target: CDK4/cyclin D1 (Homo sapiens (Human), UniProt P11802)
Sequence (P11802 whole entry): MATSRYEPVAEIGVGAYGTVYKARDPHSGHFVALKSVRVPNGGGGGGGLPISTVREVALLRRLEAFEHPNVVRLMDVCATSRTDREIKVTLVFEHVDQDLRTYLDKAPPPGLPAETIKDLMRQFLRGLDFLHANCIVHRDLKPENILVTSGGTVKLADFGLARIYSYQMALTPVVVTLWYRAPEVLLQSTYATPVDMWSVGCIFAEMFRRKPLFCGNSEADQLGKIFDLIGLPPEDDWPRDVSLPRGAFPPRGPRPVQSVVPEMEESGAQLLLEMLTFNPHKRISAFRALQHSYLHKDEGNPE
Sequence (P24385 whole entry partner): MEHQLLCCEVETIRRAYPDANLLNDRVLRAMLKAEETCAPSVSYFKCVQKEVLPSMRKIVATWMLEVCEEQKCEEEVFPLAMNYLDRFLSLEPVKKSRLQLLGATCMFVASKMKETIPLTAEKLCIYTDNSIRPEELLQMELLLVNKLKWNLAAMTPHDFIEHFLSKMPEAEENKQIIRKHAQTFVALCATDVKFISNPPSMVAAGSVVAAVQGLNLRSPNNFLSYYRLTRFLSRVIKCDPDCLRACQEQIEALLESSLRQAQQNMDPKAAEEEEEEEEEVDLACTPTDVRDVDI
Assay: CDK4/cyclin D1 enzymatic activity assay (Protocol A, Lance TR-FRET)
Assay type: biochemical
Details: CDK4/cyclin D1, 175 nM pRb152, 3 μM ATP, 60 min, room temperature; read-out: IC50 against CDK4 kinase
experimental.endpoint: IC50 (nM)

molecule	experimental.endpoint	unit.abbrev	value.measured
O=C(c1ccnc(-c2cncc3ccccc23)c1)c1nc2ccc(N3CCCNCC3)nc2[nH]1 [Example 163]	IC50	nM	14
O=C(c1ccnc(-c2cncc3ccccc23)c1)c1nc2ccc(N3CCNCC3)nc2[nH]1 [Example 164]	IC50	nM	24
O=C(c1ccnc(-c2cncc3ccccc23)c1)c1nc2ccc(S(=O)(=O)N3CCNCC3)cc2[nH]1 [Example 182]	IC50	nM	77
Cc1n[nH]c(C)c1-c1cc(C(=O)c2nc3ccc(N4CCC(N(C)C)CC4)nc3[nH]2)ccn1 [Example 167]	IC50	nM	195
CN1CCC(NC(=O)c2ccc3nc(C(=O)c4ccnc(-c5cncc6ccccc56)c4)[nH]c3c2)CC1 [Example 99]	IC50	nM	26
Cc1n[nH]c(C)c1-c1cc(C(=O)c2nc3ccc(N4CCNCC4)nc3[nH]2)ccn1 [Example 169]	IC50	nM	260
CN(C)C1CCN(c2ccc3nc(C(=O)c4ccc(C#N)c(-c5cncc6ccccc56)c4)[nH]c3n2)CC1 [Example 165]	IC50	nM	3
O=C(c1ccnc(-c2cncc3ccccc23)c1)c1nc2cc(OCC(O)CO)ccc2[nH]1 (stereo not drawn) [Example 98]	IC50	nM	33
Cc1n[nH]c(C)c1-c1cc(C(=O)c2nc3ccc(N4CCCNCC4)nc3[nH]2)ccn1 [Example 170]	IC50	nM	548
Cc1ncc2ccccc2c1-c1cc(C(=O)c2nc3cc(C(=O)N4CCNCC4)ccc3[nH]2)ccc1C#N [Example 174]	IC50	nM	5
CN(C)C1CCN(c2ccc3nc(C(=O)c4ccnc(-c5cncc6ccccc56)c4)[nH]c3n2)CC1 [Example 135]	IC50	nM	12
Cc1nn(C)c(C)c1-c1cc(C(=O)c2nc3ccc(N4CCC(N(C)C)CC4)nc3[nH]2)ccc1C#N [Example 173]	IC50	nM	12

This collection of values is drawn from patent US8598217B2.
